Listed here are compounds together with their documented pIC50.
- TARGET_ENTITY: recombinant human NF-kappaB-inducing kinase (NIK/MAP3K14) (Homo sapiens)
- EXPERIMENTAL_PROTOCOL: Biological Assay A: inhibition of recombinant human NF-kappaB-inducing kinase (NIK/MAP3K14) activity (MBP phosphorylation, Mesoscale)
- CONDITION_CONTEXT: MSD MBP; averaged over all measurements on all batches; read-out: Assay A Biochemical (MSD MBP) IC50
pIC50: −log10 of the molar value.
RECORDED_ENDPOINT: pIC50

[
  {
    "COMPOUND": "COc1cc(Nc2nccc(-c3cnc4c(c3)C(C)(CO)CN4)n2)c(C)c(C(=O)NC2CN(C)C2)c1 (stereo not shown) [Compound 90]",
    "COMPARATOR": "=",
    "RESULT_VALUE": 7.83
  },
  {
    "COMPOUND": "COc1cc(CNC(C)=O)ccc1Nc1nccc(-c2cnc3c(c2)C(C)(C)CN3)n1 [Compound 62]",
    "COMPARATOR": "=",
    "RESULT_VALUE": 8.26
  },
  {
    "COMPOUND": "Cc1cc(N2CCOCC2)ccc1Nc1nccc(-c2cnc3c(c2)C(C)(C)CN3)n1 [Compound 117]",
    "COMPARATOR": "=",
    "RESULT_VALUE": 6.79
  },
  {
    "COMPOUND": "COc1cc(CNC(C)=O)c(C)c(Nc2nccc(-c3cnc4c(c3)C(C)(CO)CN4)n2)c1 (stereo not shown) [Compound 84]",
    "COMPARATOR": "=",
    "RESULT_VALUE": 8.27
  },
  {
    "COMPOUND": "COc1ccc(C)c(Nc2nccc(-c3cnc4c(c3)C(C)(C)CN4)n2)c1CNC(C)=O [Compound 135]",
    "COMPARATOR": "<",
    "RESULT_VALUE": 5.00
  },
  {
    "COMPOUND": "COc1cc(Nc2nccc(-c3cnc4c(c3)C(C)(C)CN4)n2)c(C)c(C(=O)NC2CN(C)C2)c1 [Compound 51]",
    "COMPARATOR": "=",
    "RESULT_VALUE": 8.16
  },
  {
    "COMPOUND": "Cc1cc(C(=O)NC2CCOCC2)ccc1Nc1nccc(-c2cnc3c(c2)C(C)(CCO)CN3)n1 (stereo not shown) [Compound 124]",
    "COMPARATOR": "=",
    "RESULT_VALUE": 8.11
  },
  {
    "COMPOUND": "CC1(C)CNc2ncc(-c3ccnc(Nc4ccc(C(=O)NC5CCOCC5)cc4OC(F)F)n3)cc21 [Compound 82]",
    "COMPARATOR": "=",
    "RESULT_VALUE": 7.61
  },
  {
    "COMPOUND": "CC(=O)NCc1ccc(Nc2nccc(-c3cnc4c(c3)C(C)(CO)CN4)n2)c(C)c1 (stereo not shown) [Compound 86]",
    "COMPARATOR": "=",
    "RESULT_VALUE": 7.82
  },
  {
    "COMPOUND": "COC1CCN(C(=O)c2ccc(Nc3nccc(-c4cnc5c(c4)C(C)(CO)CN5)n3)c(C)c2)CC1 (stereo not shown) [Compound 121]",
    "COMPARATOR": "=",
    "RESULT_VALUE": 7.95
  },
  {
    "COMPOUND": "CCC(=O)NCc1cccc(Nc2nccc(-c3cnc4c(c3)C(C)(C)CN4)n2)c1C [Compound 64]",
    "COMPARATOR": "=",
    "RESULT_VALUE": 7.87
  },
  {
    "COMPOUND": "CC(=O)NCc1ccc(Nc2nccc(-c3cnc4c(c3)C(C)(C)CN4)n2)c(OC(F)F)c1 [Compound 85]",
    "COMPARATOR": "=",
    "RESULT_VALUE": 7.85
  },
  {
    "COMPOUND": "CN1CCC(NC(=O)c2ccc(Nc3nccc(-c4cnc5c(c4)C(C)(C)CN5)n3)c(C(F)(F)F)c2)CC1 [Compound 91]",
    "COMPARATOR": "=",
    "RESULT_VALUE": 6.47
  },
  {
    "COMPOUND": "Cc1cc(CNC(=O)C(C)C)ccc1Nc1nccc(-c2cnc3c(c2)C(C)(C)CN3)n1 [Compound 75]",
    "COMPARATOR": "=",
    "RESULT_VALUE": 7.91
  },
  {
    "COMPOUND": "Cc1cc(C(=O)N2CCC(O)CC2)ccc1Nc1nccc(-c2cnc3c(c2)C(C)(CO)CN3)n1 (stereo not shown) [Compound 109]",
    "COMPARATOR": "=",
    "RESULT_VALUE": 7.99
  },
  {
    "COMPOUND": "CC1(C)CNc2ncc(-c3ccnc(Nc4ccc(C(=O)NC5CCOCC5)cc4C(F)(F)F)n3)cc21 [Compound 94]",
    "COMPARATOR": "=",
    "RESULT_VALUE": 6.46
  }
]

----------
- TARGET_ENTITY: recombinant human NF-kappaB-inducing kinase (NIK/MAP3K14) (Homo sapiens, UniProt Q99558)
- Sequence (Q99558 whole entry): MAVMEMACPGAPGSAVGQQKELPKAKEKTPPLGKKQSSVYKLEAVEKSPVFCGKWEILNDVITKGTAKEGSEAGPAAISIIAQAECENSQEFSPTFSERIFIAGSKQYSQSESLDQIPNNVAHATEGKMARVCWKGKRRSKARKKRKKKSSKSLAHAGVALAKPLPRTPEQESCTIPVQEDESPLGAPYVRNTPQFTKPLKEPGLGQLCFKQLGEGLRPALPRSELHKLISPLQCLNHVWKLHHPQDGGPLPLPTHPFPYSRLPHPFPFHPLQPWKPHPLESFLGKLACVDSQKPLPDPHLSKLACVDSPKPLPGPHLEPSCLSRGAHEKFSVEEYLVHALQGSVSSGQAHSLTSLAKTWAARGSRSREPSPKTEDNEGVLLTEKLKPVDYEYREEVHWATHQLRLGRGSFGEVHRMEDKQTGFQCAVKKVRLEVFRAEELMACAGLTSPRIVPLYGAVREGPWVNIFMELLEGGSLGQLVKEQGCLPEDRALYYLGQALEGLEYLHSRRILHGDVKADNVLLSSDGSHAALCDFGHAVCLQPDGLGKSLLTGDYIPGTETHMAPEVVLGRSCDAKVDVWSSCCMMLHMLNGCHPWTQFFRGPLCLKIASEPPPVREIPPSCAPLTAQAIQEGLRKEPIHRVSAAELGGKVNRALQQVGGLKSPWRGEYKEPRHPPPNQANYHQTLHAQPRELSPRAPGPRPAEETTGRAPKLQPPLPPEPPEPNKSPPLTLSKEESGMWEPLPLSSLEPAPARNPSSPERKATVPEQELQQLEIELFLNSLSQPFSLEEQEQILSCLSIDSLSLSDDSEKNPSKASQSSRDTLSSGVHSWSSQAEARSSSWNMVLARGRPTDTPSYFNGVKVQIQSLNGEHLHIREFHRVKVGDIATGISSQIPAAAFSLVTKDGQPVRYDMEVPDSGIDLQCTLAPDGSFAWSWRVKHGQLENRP
- EXPERIMENTAL_PROTOCOL: Biological Assay B: inhibition of auto-phosphorylation of recombinant human NIK/MAP3K14 (AlphaScreen), performed at 2 locations
- Assay type: biochemical
- CONDITION_CONTEXT: location 2; AlphaScreen auto-phosphorylation; averaged values; read-out: Assay B location 2 IC50
Label YES when IC50 is strictly below 3 nM; otherwise label NO.

[
  {
    "COMPOUND": "COc1cc(N2CCC(N(C)C)CC2)c(Cl)cc1Nc1nccc(-c2cnc3c(c2)C(C)(C)CN3)n1",
    "GROUP": "YES"
  },
  {
    "COMPOUND": "COc1cc(N2CCOCC2)c(F)cc1Nc1nccc(-c2cnc3c(c2)C(C)(CO)CN3)n1 (centres unmarked) [Compound 243]",
    "GROUP": "NO"
  },
  {
    "COMPOUND": "COc1cc(N2CCC(C#N)CC2)c(Cl)cc1Nc1nccc(-c2cnc3c(c2)C(C)(CO)CN3)n1 (centres unmarked)",
    "GROUP": "NO"
  },
  {
    "COMPOUND": "COc1cc(N2CCOCC2)c(F)cc1Nc1nccc(-c2cnc3c(c2)C(C)(CO)CN3)n1 (single isomer, unassigned) [Compound 254]",
    "GROUP": "NO"
  },
  {
    "COMPOUND": "COc1cc(CNC(C)=O)ccc1Nc1nccc(-c2cnc3c(c2)C(C)(CO)CN3)n1 (centres unmarked)",
    "GROUP": "NO"
  },
  {
    "COMPOUND": "COc1ccc(N2CCN(C)CC2)cc1Nc1nccc(-c2cnc3c(c2)C(C)(CO)CN3)n1 (centres unmarked)",
    "GROUP": "NO"
  },
  {
    "COMPOUND": "CCOc1ccccc1Nc1nccc(-c2cnc3c(c2)C(C)(CO)CN3)n1 (centres unmarked)",
    "GROUP": "NO"
  },
  {
    "COMPOUND": "CN(C)CCOc1cc(N2CCOCC2)c(F)cc1Nc1nccc(-c2cnc3c(c2)C(C)(CO)CN3)n1 (single isomer, unassigned) [Compound 286]",
    "GROUP": "NO"
  },
  {
    "COMPOUND": "COc1cc(N2CCOCC2)c(C#N)cc1Nc1nccc(-c2cnc3c(c2)C(C)(CO)CN3)n1 (single isomer, unassigned) [Compound 4S]",
    "GROUP": "YES"
  },
  {
    "COMPOUND": "Cc1cc(N2CCOCC2)c(F)cc1Nc1nccc(-c2cnc3c(c2)C(C)(CO)CN3)n1 (single isomer, unassigned) [Compound 255]",
    "GROUP": "NO"
  },
  {
    "COMPOUND": "COc1cc(N2CCN(C)CC2)c(F)cc1Nc1nccc(-c2cnc3c(c2)C(C)(CO)CN3)n1 (centres unmarked)",
    "GROUP": "YES"
  },
  {
    "COMPOUND": "COCCN(C)c1cc(OC)c(Nc2nccc(-c3cnc4c(c3)C(C)(CO)CN4)n2)cc1Cl (single isomer, unassigned) [Compound 5S]",
    "GROUP": "YES"
  },
  {
    "COMPOUND": "COc1cc(OCC(=O)N(C)C)c(Cl)cc1Nc1nccc(-c2cnc3c(c2)C(C)(CO)CN3)n1 (centres unmarked)",
    "GROUP": "YES"
  },
  {
    "COMPOUND": "COc1cc(OCCN2CCOCC2)ccc1Nc1nccc(-c2cnc3c(c2)C(C)(CO)CN3)n1 (centres unmarked)",
    "GROUP": "NO"
  },
  {
    "COMPOUND": "COc1ccc(C2CC2)cc1Nc1nccc(-c2cnc3c(c2)C(C)(CO)CN3)n1 (centres unmarked)",
    "GROUP": "NO"
  },
  {
    "COMPOUND": "COCCN(C)c1cc(OC)c(Nc2nccc(-c3cnc4c(c3)C(C)(CO)CN4)n2)cc1Cl (single isomer, unassigned) [Compound 5R]",
    "GROUP": "NO"
  },
  {
    "COMPOUND": "CN(C)CCOc1cc(N2CCOCC2)c(Cl)cc1Nc1nccc(-c2cnc3c(c2)C(C)(CO)CN3)n1 (single isomer, unassigned) [Compound 272]",
    "GROUP": "NO"
  },
  {
    "COMPOUND": "COc1cc(N2CCC(N(C)C)CC2)c(Cl)cc1Nc1nccc(-c2cnc3c(c2)C(C)(CO)CN3)n1 (centres unmarked)",
    "GROUP": "YES"
  },
  {
    "COMPOUND": "COc1cc(-c2ccn(C)n2)ccc1Nc1nccc(-c2cnc3c(c2)C(C)(CO)CN3)n1 (centres unmarked)",
    "GROUP": "NO"
  },
  {
    "COMPOUND": "COc1cc(N2CC(OC)C2)c(Cl)cc1Nc1nccc(-c2cnc3c(c2)C(C)(CO)CN3)n1 (centres unmarked) [Compound 269]",
    "GROUP": "YES"
  },
  {
    "COMPOUND": "CC1(CO)CNc2ncc(-c3ccnc(Nc4cc(Cl)c(N5CCOCC5)cc4Cl)n3)cc21 (single isomer, unassigned) [Compound 265]",
    "GROUP": "NO"
  },
  {
    "COMPOUND": "COc1ccc(Br)cc1Nc1nccc(-c2cnc3c(c2)C(C)(CO)CN3)n1 (centres unmarked)",
    "GROUP": "YES"
  },
  {
    "COMPOUND": "COc1cc(CCO)ccc1Nc1nccc(-c2cnc3c(c2)C(C)(CO)CN3)n1 (centres unmarked)",
    "GROUP": "NO"
  },
  {
    "COMPOUND": "COCc1ccc(Nc2nccc(-c3cnc4c(c3)C(C)(CO)CN4)n2)c(OC)c1 (centres unmarked)",
    "GROUP": "NO"
  },
  {
    "COMPOUND": "CC1(CO)CNc2ncc(-c3ccnc(Nc4cc(F)c(N5CCOCC5)cc4Cl)n3)cc21 (single isomer, unassigned) [Compound 261]",
    "GROUP": "NO"
  },
  {
    "COMPOUND": "CCN1CCN(c2cc(OC)c(Nc3nccc(-c4cnc5c(c4)C(C)(CO)CN5)n3)cc2F)CC1 (centres unmarked)",
    "GROUP": "YES"
  },
  {
    "COMPOUND": "COc1cc(C(=O)N2CCC(OC)CC2)ccc1Nc1nccc(-c2cnc3c(c2)C(C)(CO)CN3)n1 (centres unmarked)",
    "GROUP": "YES"
  },
  {
    "COMPOUND": "COc1cc(C(=O)NC2CCOCC2)c(Cl)cc1Nc1nccc(-c2cnc3c(c2)C(C)(C)CN3)n1",
    "GROUP": "YES"
  },
  {
    "COMPOUND": "COc1cc(CNC(C)=O)ccc1Nc1nccc(-c2cnc3c(c2)C(C)(C)CN3)n1",
    "GROUP": "YES"
  }
]
